Test: Pharmacokinetic assessments in plasma, phase I/Ib study
Assay type: in vivo, human
Conditions: human, plasma, oral; 800 mg BID, C1D1; read-out: λz (converted)
property.label: k el (s⁻¹)
Give bare numbers, in s⁻¹.

Q: Report k el for CC[C@H](Nc1ncnc2[nH]cnc12)c1oc2ccccc2c(=O)c1-c1cccc(F)c1 please.
Ans: 8.33e-05

====

Assay: Pharmacokinetic assessments in plasma, phase I/Ib study
Format: in vivo, human
Settings: human, plasma, oral, 200 mg, 200 mg BID, C2D1; geometric mean
property.label: Cmax

Q: Look up Cmax for this compound: CC[C@H](Nc1ncnc2[nH]cnc12)c1oc2ccccc2c(=O)c1-c1cccc(F)c1
Ans: 1650 ng/mL
